# tested_on: EGFR L858R (BaF3-L858R cells) (Homo sapiens, UniProt P00533, L858R)
# Construct: host or cells: BaF3
# Sequence (P00533 25-1210 L858R): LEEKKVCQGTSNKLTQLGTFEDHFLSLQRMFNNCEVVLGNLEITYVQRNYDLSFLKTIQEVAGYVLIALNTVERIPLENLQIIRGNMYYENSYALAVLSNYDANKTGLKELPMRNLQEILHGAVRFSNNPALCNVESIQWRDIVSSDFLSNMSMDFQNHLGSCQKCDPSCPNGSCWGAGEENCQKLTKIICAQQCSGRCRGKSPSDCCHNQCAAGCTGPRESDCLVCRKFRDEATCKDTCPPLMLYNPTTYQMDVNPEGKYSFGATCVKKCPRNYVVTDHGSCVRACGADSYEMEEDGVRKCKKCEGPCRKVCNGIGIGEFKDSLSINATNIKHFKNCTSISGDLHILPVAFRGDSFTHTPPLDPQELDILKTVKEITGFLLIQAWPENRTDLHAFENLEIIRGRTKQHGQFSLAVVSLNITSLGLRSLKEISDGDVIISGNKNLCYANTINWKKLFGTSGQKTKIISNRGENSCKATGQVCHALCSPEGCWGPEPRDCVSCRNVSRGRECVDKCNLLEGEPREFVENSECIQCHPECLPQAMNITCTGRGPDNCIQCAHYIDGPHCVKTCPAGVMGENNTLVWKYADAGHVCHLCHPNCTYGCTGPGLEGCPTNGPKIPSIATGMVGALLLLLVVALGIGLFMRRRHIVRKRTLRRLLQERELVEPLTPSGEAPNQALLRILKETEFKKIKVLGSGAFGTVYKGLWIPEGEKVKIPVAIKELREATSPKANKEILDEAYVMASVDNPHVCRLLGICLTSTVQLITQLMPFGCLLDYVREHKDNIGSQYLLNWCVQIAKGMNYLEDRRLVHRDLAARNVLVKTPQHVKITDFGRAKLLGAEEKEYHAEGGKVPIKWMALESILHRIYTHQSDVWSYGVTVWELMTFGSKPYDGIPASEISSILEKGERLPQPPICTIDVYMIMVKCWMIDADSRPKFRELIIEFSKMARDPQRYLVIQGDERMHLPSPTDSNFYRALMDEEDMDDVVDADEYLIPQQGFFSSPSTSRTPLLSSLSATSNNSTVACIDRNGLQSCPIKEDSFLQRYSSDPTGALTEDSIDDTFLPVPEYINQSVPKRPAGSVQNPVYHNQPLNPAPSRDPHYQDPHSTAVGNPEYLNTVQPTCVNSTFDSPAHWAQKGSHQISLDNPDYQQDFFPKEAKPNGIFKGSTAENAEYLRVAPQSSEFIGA
# assay_explanation: Cell degradation of EGFR, HTRF assay, BaF3-L858R cells
# Assay type: cell-based
# test_parameters: 16 h treatment, maximum percentage of degradation
What Dmax was measured for each of the following?
In your response, the unit should come after the numeric value.

Guide cases for Dmax, answers given:
compound: Cc1cc2cc(n1)-c1cnn(C)c1OC[C@H]1CCC(C1)CN1/C(=N/C2=O)Nc2ccc(N3CCC4(CC3)CN(C3CCN(c5cc(F)c([C@H]6CCC(=O)NC6=O)c(F)c5)CC3)C4)cc21
assay_result: 70.8%
--
compound: COC[C@@H]1CN(c2ccc3c(c2)N2C[C@@H]4CCC(COc5c(c(C)nn5C)-c5cc(cc(C)n5)C(=O)/N=C/2N3)C4)CCN1C1CN(C2CCN(c3cc(F)c([C@H]4CCC(=O)NC4=O)c(F)c3)CC2)C1
assay_result: 82.2%

Field: Dmax. Fill in for each record below.
1. Cc1cc2cc(n1)-c1cnn(C)c1OC[C@H]1CC[C@H](C1)CN1/C(=N/C2=O)Nc2ccc(N3CCN(CC4CN(c5c(C)cc(C6CCC(=O)NC6=O)nc5C)C4)CC3)cc21 (stereo partly shown)
2. COC[C@@H]1CN(c2cc3c(cc2F)N/C2=N\C(=O)c4cc(C)nc(c4)-c4cnn(C)c4OC[C@H]4CCC(C4)CN23)CCN1C1CCN(c2cc(F)c([C@H]3CCC(=O)NC3=O)c(F)c2)CC1
3. COC[C@@H]1CN(c2ccc3c(c2)N2CC4CC[C@H](COc5c(cnn5C)-c5cc(cc(C)n5)C(=O)/N=C/2N3)C4)CCN1CC1CN(c2cc(F)c([C@H]3CCC(=O)NC3=O)c(F)c2)C1
4. Cc1cc2cc(n1)-c1cnn(C)c1OC[C@H]1CC[C@H](C1)CN1/C(=N/C2=O)Nc2ccc(N3CCN([C@H]4CCN(c5ccc(C6CCC(=O)NC6=O)nc5C)C[C@H]4F)CC3)cc21 (stereo partly shown)
5. Cc1cc2cc(n1)-c1cnn(C)c1OC[C@H]1CC[C@H](C1)CN1/C(=N/C2=O)Nc2ccc(N3CCN(C4CCN(c5cccc6c5C(C)(C)C(=O)N6C5CCC(=O)NC5=O)CC4)CC3)cc21 (stereo partly shown)
6. Cc1cc2cc(n1)-c1c(C)nn(C)c1OC[C@H]1CC[C@H](C1)CN1/C(=N/C2=O)Nc2ccc(N3CCN(CC4CCN(c5cc(F)c([C@H]6CCC(=O)NC6=O)c(F)c5)CC4)CC3)cc21
7. COC[C@@H]1CN(c2cc3c(cc2OC)N/C2=N\C(=O)c4cc(C)nc(c4)-c4c(C)nn(C)c4OC[C@H]4CC[C@H](C4)CN23)CCN1C1CCN(c2cc(F)c([C@H]3CCC(=O)NC3=O)c(F)c2)CC1

["64%", "64.1%", "70.3%", "94.2%", "84.4%", "89.2%", "90.6%"]

Query Dmax on EGFR L858R (BaF3-L858R cells) (Homo sapiens, UniProt P00533, L858R) for Cc1cc2cc(n1)-c1c(C)nn(C)c1OC[C@H]1CC[C@H](C1)CN1/C(=N/C2=O)Nc2ccc(N3CCN([C@@H]4CCN(c5ccc(OC6CCC(=O)NC6=O)cc5)C[C@@H]4F)CC3)cc21 (stereo partly shown) 73.6%
